tested on: PfAP2-LT AP2 domain (GST-tagged); experiment: gcPBM binding intensity (ln(normalized median fluorescence intensity)); higher = stronger DNA binding
In all, about 25,000 sequences were measured (“ln(normalized median fluorescence intensity)”: median about 8.9, highest 2% from about 10 on). What follows is part of a selection rich in the highest values, with near analogues and random picks from the rest.
The sequences listed here are annotated with their gcPBM binding intensity (ln).

RESIDUES	gcPBM binding intensity (ln)
ATATATATATATTCCACACACACACCCAAAAAAAAA [CACACA_site3649]	9.74
ATTCTACACCCACATACACACATATATATATATATA [CACACA_site3426]	10
TACACCCACCCACATACACACACATACACATATATA [CACACA_site8503]	10.1
AAATTCCACCAACACACACACATATAAATAAATAAA [CACACA_site1233]	9.86

---

tested on: PfAP2-LT AP2 domain (GST-tagged); assay: gcPBM binding intensity (ln(normalized median fluorescence intensity)); higher = stronger DNA binding
The full ranking holds about 25,000 sequences; the median of “ln(normalized median fluorescence intensity)” is about 8.9, and the highest 2% start at about 10. This excerpt belongs to a sample that is enriched for the highest values.
MEASUREMENT KIND: gcPBM binding intensity (ln)

RESIDUES	MEASUREMENT KIND	REPORTED
AATCATGCTCCGGAAAGTACATAAATAAATAAATAA [XGTACX_site1690]	gcPBM binding intensity (ln)	8.85
CCATAAAAAGGATACACACACACACCCACATATATA [CACACA_site903]	gcPBM binding intensity (ln)	10.1
TGAACACATACATACACACACACAAAAAAAAAAAAA [CACACA_site392]	gcPBM binding intensity (ln)	9.76
TTTTTTAAAATATGGACACACATATATATATCTGTA [CACACA_site5535]	gcPBM binding intensity (ln)	8.88
AAATAACATAATAAGGGTACATTAATTTCGATAATG [XGTACX_site835]	gcPBM binding intensity (ln)	8.77
AATAATAATTTAAAAAGTACATTCTAATAAACACGT [XGTACX_site1444]	gcPBM binding intensity (ln)	8.78
TACCATATTTCTTCAAGTACGCATTATGTTAAAAAG [XGTACX_site345]	gcPBM binding intensity (ln)	8.51
AATACATATAAAAGTACACACACACCCATATATATA [CACACA_site8220]	gcPBM binding intensity (ln)	9.97

---

test system: PfAP2-LT AP2 domain (GST-tagged); test: gcPBM binding intensity (ln(normalized median fluorescence intensity)); higher = stronger DNA binding
The full ranking holds about 25,000 sequences; the median of “ln(normalized median fluorescence intensity)” is about 8.9, and the highest 2% start at about 10. This is one part of a sample in which the highest values are shown more often than they occur.
Quick reference: gcPBM binding intensity (ln) of the listed items.
MEASUREMENT KIND: gcPBM binding intensity (ln)

RESIDUES	REPORTED
CGTGGGAGCAGACACACACACACACCCATATATATA [CACACA_site334]	9.99
TTTATTTATTAATACACACACACACCCAGACAAAAT [CACACA_site4292]	10
TATACACCCAGACACACACACACACCCAAAAAAAAA [CACACA_site497]	10.2
ATATTTGCCCAAGATAGTACATATATATATATATAT [XGTACX_site7756]	9.74
AAATATAATAAAATGACACACGCATATATATATATA [CACACA_site8900]	9.78
TATTAATACAGACACACACACACACTAATTAAAATA [CACACA_site7967]	9.96
ATATATATATATATATGTACGTACTCAGTTATGCCT [XGTACX_site453]	10.2
TTTATTTATTAATACACACACACACGCCCACAAAAT [CACACA_site6253]	9.99
TTTATTTATTAATACACACACACACCCCCACAAAAT [CACACA_site240]	10.1
AAAAAAAAAAAAAAAACACACATATATATATATATA [CACACA_site2436]	10.1
TGGGAGCACAGACACACACACACACCCATATATATA [CACACA_site335]	9.98
TACCTATACAGACACACACACACACGCCCACAAAAA [CACACA_site6375]	10.2
CATACCTATAGACACACACACACACGCACGCACAAA [CACACA_site6374]	10

---

gcPBM binding intensity (ln) reference
test system: PfAP2-LT AP2 domain (GST-tagged); experiment: gcPBM binding intensity (ln(normalized median fluorescence intensity)); higher = stronger DNA binding
Over roughly 25,000 sequences, “ln(normalized median fluorescence intensity)” has its median near 8.9; the highest 2% begin near 10. Only a selection was taken, and the highest values are over-represented in it overall.

RESIDUES	gcPBM binding intensity (ln)
GGAATAACCGGACACACACACACATATATATATATA [CACACA_site5874]	10.4
CGAAAAAATAAAAAAAAAATAAAATAAAATAAATAA [TGCATGCA_negctrl_site278]	8.56
TACAGACAGAAATGCACACACATATATATATATATA [CACACA_site2283]	10.2
TTTATTAAACTTGACACACACACACCCACATATATA [CACACA_site760]	9.8
AAAAAAAAAAAAAACACACACACACGCATACAAAAT [CACACA_site6794]	10.2
CATACTCACCAACACACACACACACCCATATAGAAT [CACACA_site592]	10.2
TTCTTAATTTAAAATTGTACTTAAGTAATACTTATG [XGTACX_site3928]	8.49
AATATATATATATATATTTTTGTTAGAATATGGAAT [GTGCAC_negctrl_site434]	8.65
GTTTGATTAAACTTGACACACATATATATAAATATA [CACACA_site1784]	8.71
CATATACATATATGTAGTACGTGTTCTTCTATATGA [XGTACX_site8344]	8.84
AATACATACAGACACACACACACATATATATATATA [CACACA_site3558]	10.4
AACAAAAAAACAAACACACACACACGCATATTTATA [CACACA_site7680]	10.2
TATTAAACTTGACACACACACACACGCATATATAAA [CACACA_site6496]	10.1
TATCATAAAATATGTAGTACGTATATATATAAAAAT [XGTACX_site5455]	8.97
AAAAAAAAAAAACATACACACATACATACCTATATA [CACACA_site6575]	9.33
TTATATAAAGAATGTACACACAGAAATGCACCCACA [CACACA_site2282]	9.39
CACCCACACCAACACACACACATATATAATATATAT [CACACA_site595]	9.88
ATAAAAAGGAGACACACACACACACGCATATTTATA [CACACA_site6551]	10.3
ATAAGGATCAGACACAAACACACATATATATATATA [CACACA_site558]	10.1
TACACCCAGAAATGCACACACATATATATATATATA [CACACA_site5289]	10.3
TCATAGTAGAAACACACACACACACCCATATATATA [CACACA_site1737]	10.1
AACATACACATATACACACACACATATATACCTATA [CACACA_site6643]	10
TACAGACAGAAATGCACACACATATTTATATTTATA [CACACA_site7139]	9.35

---

test system: PfAP2-LT AP2 domain (GST-tagged); assay: gcPBM binding intensity (ln(normalized median fluorescence intensity)); higher = stronger DNA binding
Over roughly 25,000 sequences, “ln(normalized median fluorescence intensity)” has its median near 8.9; the highest 2% begin near 10. The sample as a whole holds a higher share of the highest values than the screen did.
In this section we review reported gcPBM binding intensity (ln) values for a set of sequences.

RESIDUES	gcPBM binding intensity (ln)
TTTATATTGATATATACACACATATACATCCTATTT [CACACA_site7442]	9.11
ACAAAAGGGGAATACACACACATATATATATATATA [CACACA_site2215]	10.3
TTAAAAAAAAAACACACACACATACACATATATATA [CACACA_site3299]	9.91
CACACAAAGGAATATACACACATATTTATATTTATA [CACACA_site7841]	9.21
ATATAACATAGACACACACACATATAAATATATTAT [CACACA_site7865]	9.67
AAAGGGGATATATGAACACACAAAAAAAAAATATAT [CACACA_site2896]	9.13
AAAACAATATACTGTAGTACTGATGATATATATATA [XGTACX_site7798]	9.01
AGTATATATACACAAGGGGAATACATATACAAAATT [TGCATGCA_negctrl_site244]	9.04
CATATATATAAATACACACACACACCCCTTATAATT [CACACA_site4064]	10.2
AACAAAAAAACAAACACACACACACCCATATATATA [CACACA_site3652]	10
ACATATAATAAAAAATGTACACACATAAGAAAATTT [XGTACX_site6153]	9.16
TTATATATATATATATGTACACATATATAACATGAT [XGTACX_site6643]	9.19
AAGGTATTTATAACTACACACTTATTTATAACCTAA [CACACA_site6194]	8.7
TATACGCAGAAACACACACACATACACCCACATACA [CACACA_site1723]	10
ATTTTTTCTTATAAAAAAGAAAAAGAAAAAGAAAAA [CACACA_negctrl_site1216]	8.02
ATTTGGCATAAACACACACACACACCCACCCACATA [CACACA_site8096]	10.1
AGGGACATATATATCACACACAAAAATTAGTCCCTT [CACACA_site2778]	9.39
AACAAATACGAACACACACACACACTAAAAAAAAAA [CACACA_site6386]	10.3
